Each recorded value in this set is attributed to the supplement of paper PMC12338614.

B1: library; numbered along this chain (parent)
chain: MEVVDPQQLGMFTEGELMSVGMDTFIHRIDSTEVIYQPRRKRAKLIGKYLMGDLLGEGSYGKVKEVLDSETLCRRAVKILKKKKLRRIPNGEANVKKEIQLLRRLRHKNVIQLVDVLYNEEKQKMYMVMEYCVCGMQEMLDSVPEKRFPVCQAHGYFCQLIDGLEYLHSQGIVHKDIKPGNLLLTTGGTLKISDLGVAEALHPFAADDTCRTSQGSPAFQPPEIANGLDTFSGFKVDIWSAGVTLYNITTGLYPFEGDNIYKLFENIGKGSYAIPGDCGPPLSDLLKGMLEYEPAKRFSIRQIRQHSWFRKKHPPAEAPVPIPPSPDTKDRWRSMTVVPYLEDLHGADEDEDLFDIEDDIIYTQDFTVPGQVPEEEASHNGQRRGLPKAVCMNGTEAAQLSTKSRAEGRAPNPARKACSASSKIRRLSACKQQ

Variants of: B1
Experiment: STK11 functional score (HeLa growth suppression), rescaled enrichment; synonymous median = 1, nonsense median = 0 (normalised score)
Conditions: with HeLa; variant type: missense
The entries below come with measured STK11 functional score values attached.

As a guide, the following entries are already answered.
{"mutation string": "K48W", "STK11 functional score": 0.798}
{"mutation string": "S307D", "STK11 functional score": 1.49}
{"mutation string": "L54S", "STK11 functional score": 1.2}
{"mutation string": "D327N", "STK11 functional score": 1.3}
{"mutation string": "K124H", "STK11 functional score": 1.3}

### Prompt Given `A420V` , state its recorded STK11 functional score.
### Response 1.52

### Prompt I have this variant here, `E407V` , and I need its recorded STK11 functional score.
### Response 1.38

### Prompt What does the record list as STK11 functional score for `L45F` ?
### Response 1.1
